// data source = PubChem BioAssay (Tox21)

# test_name: qHTS assay to identify small molecule antagonists of the estrogen receptor alpha (ER-alpha) signaling pathway using the BG1 cell line (AID 743080);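 further: BG1 cells stimulated with 17beta-estradiol alongside compound; nearly all actives have a fitted effect of over 25% in size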
# condition_info: BG1Luc4E2 ERE-luciferase antagonist mode, luminescence; series mostly up to 70.3 µM
Records with an inconclusive call do not appear. The source made the active and inactive calls. The call rests on the fitted dose curve.
Possible outcomes: active, inactive

>  <compound>
CCCCOCCOCCOCCO

>  <label>
inactive

$$$$
>  <compound>
CC(C)OB(OC(C)C)OC(C)C

>  <label>
inactive

$$$$
>  <compound>
COC(C)COC(C)COC(C)CO (configuration not stated)

>  <label>
inactive

$$$$
>  <compound>
c1ccc2c(c1)Oc1ccccc1S2

>  <label>
inactive

$$$$
>  <compound>
COc1cccc2c1C(=O)c1c(O)c3c(c(O)c1C2=O)C[C@@](O)(C(=O)CO)C[C@@H]3O[C@H]1C[C@H](N)[C@H](O)[C@H](C)O1

>  <label>
inactive

$$$$
>  <compound>
Nc1ncnc2nc[nH]c12

>  <label>
inactive

$$$$
>  <compound>
O=C(COc1ccc(Cl)cc1)N1CCN(Cc2ccc3c(c2)OCO3)CC1

>  <label>
active

$$$$
>  <compound>
c1ccc2c(c1)c1cccc3ccc4cccc2c4c31

>  <label>
inactive

$$$$
>  <compound>
Nc1ccc(Cl)cc1Cl

>  <label>
inactive

$$$$
>  <compound>
CC(C(=O)O)c1cccc(C(=O)c2ccccc2)c1 (configuration not stated)

>  <label>
inactive

$$$$
>  <compound>
O=C(/C=C/c1ccccc1)OCc1ccccc1

>  <label>
inactive

$$$$
>  <compound>
C[C@]12CCC(=O)C=C1CC[C@@H]1[C@@H]2C(=O)C[C@@]2(C)[C@H]1CC[C@]2(O)C(=O)CO

>  <label>
inactive

$$$$
>  <compound>
O=S(=O)(O)c1ccc(O)cc1

>  <label>
inactive

$$$$
>  <compound>
Oc1ccc(O)cc1

>  <label>
inactive

$$$$
>  <compound>
Cc1cccc(C(=O)O)c1

>  <label>
inactive

$$$$
>  <compound>
C[C@]12CC[C@H]3[C@@H](CCC4=CC(=O)CC[C@@]43C)[C@@H]1CC[C@@H]2C(=O)CO

>  <label>
inactive

$$$$
>  <compound>
CC(C)(C)NC(=O)[C@H]1CC[C@H]2[C@@H]3CC[C@H]4NC(=O)C=C[C@]4(C)[C@H]3CC[C@]12C

>  <label>
inactive

$$$$
>  <compound>
CCC(C)(O)CCCC(C)C (configuration not stated)

>  <label>
inactive

$$$$
>  <compound>
C=C(C)C(=O)OCCOC(=O)C(=C)C

>  <label>
inactive

$$$$
>  <compound>
CC1=CC2C3CC(C=C3C)C2C1 (configuration not stated)

>  <label>
inactive

$$$$
>  <compound>
COc1ccccc1/C=C/C=O

>  <label>
inactive

$$$$
>  <compound>
O=C(O)c1ccccc1Nc1cccc(C(F)(F)F)c1

>  <label>
inactive

$$$$
>  <compound>
Cc1[nH]c(=O)c(C#N)cc1-c1ccncc1

>  <label>
inactive

$$$$
>  <compound>
O=C(OCc1ccccc1)c1ccccc1O

>  <label>
inactive

$$$$
>  <compound>
O=Cc1ccccc1O

>  <label>
inactive

$$$$
>  <compound>
CCCCCCCCCCCO

>  <label>
inactive

$$$$
>  <compound>
CCCCc1oc2ccccc2c1C(=O)c1cc(I)c(OCCN(CC)CC)c(I)c1

>  <label>
inactive

$$$$

###

# test_name: Human pregnane X receptor (PXR) small molecule agonists, qHTS cell viability counter screen (AID 1346977); further: nearly all actives have a fitted effect of over 50% in size
# condition_info: PXR-Luc HepG2 viability, CellTiter-Fluor, 24 h; series mostly up to 92.4 µM
Inconclusive results are not listed. Calls of active or inactive are those of the source. The call rests on the fitted dose curve; in most records, active means well fitted cell-killing curve with a large enough effect in the repeat runs; inconclusive means weak or mixed curves, or effect the other way; inactive means flat fitted curve, though single readings scatter.
Possible outcomes: 1 (yes) (active), 0 (no) (inactive)

>  <compound>
O=CCc1ccccc1

>  <label>
0 (no)

$$$$
>  <compound>
c1ccc2c(c1)c1cccc3ccc4cccc2c4c31

>  <label>
0 (no)

$$$$
>  <compound>
CN(C)c1nc(N(C)C)nc(N(C)C)n1

>  <label>
0 (no)

$$$$
>  <compound>
Brc1cc(Oc2cc(Br)c(Br)c(Br)c2Br)c(Br)c(Br)c1Br

>  <label>
0 (no)

$$$$
>  <compound>
CN1C(C(=O)Nc2ccccn2)=C(O)c2ccccc2S1(=O)=O

>  <label>
0 (no)

$$$$
>  <compound>
Nc1ccc(S(=O)(=O)Nc2cnc3ccccc3n2)cc1

>  <label>
0 (no)

$$$$
>  <compound>
COc1c(Cl)c(Cl)c(Cl)c(Cl)c1Cl

>  <label>
0 (no)

$$$$
>  <compound>
c1cc(N(CC2CO2)CC2CO2)ccc1OCC1CO1 (centres undefined)

>  <label>
1 (yes)

$$$$
>  <compound>
COC(=O)Nc1nc2ccc(S(=O)c3ccccc3)cc2[nH]1 (centres undefined)

>  <label>
0 (no)

$$$$
>  <compound>
c1ccc2cc(Nc3ccc(Nc4ccc5ccccc5c4)cc3)ccc2c1

>  <label>
0 (no)

$$$$
>  <compound>
S=C(NC1CCCCC1)NC1CCCCC1

>  <label>
0 (no)

$$$$
>  <compound>
CC(=O)CC/C=C(\C)CCC=C(C)C

>  <label>
0 (no)

$$$$
>  <compound>
Cc1ccc(C)c(O)c1C

>  <label>
0 (no)

$$$$
>  <compound>
OCCO

>  <label>
0 (no)

$$$$

###

# test_name: qHTS assay to identify small molecule agonists of the estrogen related receptor signaling pathway with the pleiotropic PPARgamma coactivator (PGC) from Tox21 10K library (AID 1224842); further: nearly all actives have a fitted effect of over 15% in size; on activation: on the % scale 0 is the no-effect control and ±100 the full control effect
# condition_info: PGC/ERR reporter cell line, luciferase ONE-Glo, 18 h; series mostly up to 92.4 µM
Records with an inconclusive call do not appear. Activity calls are given as the source filed them. Calls come from the whole dose curve; as a rule, active = well fitted activation curve with a large enough effect in the repeat runs; inconclusive = weak or mixed curves, or effect the other way; inactive = no such curve, though single readings can be large or run the other way.
Possible outcomes: TRUE for active, FALSE for inactive

>  <compound>
c1ccc(Nc2ccccc2)cc1

>  <label>
FALSE

$$$$
>  <compound>
O=C(COc1ccc(Cl)cc1)N1CCN(Cc2ccc3c(c2)OCO3)CC1

>  <label>
FALSE

$$$$
>  <compound>
O=C1c2cccc(O)c2C(=O)c2c(O)cccc21

>  <label>
FALSE

$$$$
>  <compound>
CC(C)OC=O

>  <label>
FALSE

$$$$
>  <compound>
c1ccc2cc(Nc3ccc(Nc4ccc5ccccc5c4)cc3)ccc2c1

>  <label>
FALSE

$$$$
>  <compound>
CCCCC/C=C/C=C/C=O

>  <label>
FALSE

$$$$
>  <compound>
Cc1ccc2c(n1)Oc1ccc(C(C)C(=O)OCC(=O)N(C)C)cc1C2 (stereo not given)

>  <label>
FALSE

$$$$
>  <compound>
CCCCC(CC)COCC1CO1 (stereo not given)

>  <label>
FALSE

$$$$
>  <compound>
CC(C)OB(OC(C)C)OC(C)C

>  <label>
FALSE

$$$$
>  <compound>
CC1=CC2C3CC(C=C3C)C2C1 (stereo not given)

>  <label>
FALSE

$$$$
>  <compound>
CCCCc1oc2ccccc2c1C(=O)c1cc(I)c(OCCN(CC)CC)c(I)c1

>  <label>
FALSE

$$$$
>  <compound>
O=C1OC2(c3cc(Br)c(O)c(Br)c3Oc3c2cc(Br)c(O)c3Br)c2c(Cl)c(Cl)c(Cl)c(Cl)c21

>  <label>
FALSE

$$$$
>  <compound>
CC(C(=O)O)c1cccc(C(=O)c2ccccc2)c1 (stereo not given)

>  <label>
FALSE

$$$$
>  <compound>
COC(C)COC(C)COC(C)CO (stereo not given)

>  <label>
FALSE

$$$$
>  <compound>
CC(CCC(=O)O)(c1ccc(O)cc1)c1ccc(O)cc1

>  <label>
FALSE

$$$$
>  <compound>
CCC(C)c1ccccc1O (stereo not given)

>  <label>
FALSE

$$$$
>  <compound>
c1cc(N(CC2CO2)CC2CO2)ccc1OCC1CO1 (stereo not given)

>  <label>
TRUE

$$$$
>  <compound>
COc1c(Cl)c(Cl)c(Cl)c(Cl)c1Cl

>  <label>
FALSE

$$$$
>  <compound>
CC(=O)C1(C)CC2=C(CCCC2(C)C)CC1C (stereo not given)

>  <label>
FALSE

$$$$
>  <compound>
Nc1ncn([C@@H]2O[C@H](CO)[C@@H](O)[C@H]2O)c(=O)n1

>  <label>
FALSE

$$$$

###

# target_desc: Nuclear receptor subfamily 1 group I member 2 (Rattus norvegicus)
# test_name: Rat pregnane X receptor (rPXR) activation by small molecules, qHTS assay (AID 1346983); further: on the % scale 0 is the no-effect control and ±100 the full control effect; nearly all actives have a fitted effect of over 20% in size
# condition_info: rPXR luciferase reporter cells, One-Glo luminescence, 24 h; active compounds read high
Records with an inconclusive call do not appear.
measure_name: max activation (%)

>  <molecule>
C=C(C)C1CC=C(C)CC1 (stereo not given)

>  <measure_name>
max activation

>  <measured_number>
-4.17

$$$$
>  <molecule>
O=CCCCC=O

>  <measure_name>
max activation

>  <measured_number>
4.17

$$$$
>  <molecule>
COc1ccc(C(=O)CC(=O)c2ccc(C(C)(C)C)cc2)cc1

>  <measure_name>
max activation

>  <measured_number>
-2.2

$$$$
>  <molecule>
O=C(Nc1ccc(Cl)cc1)Nc1ccc(Cl)c(Cl)c1

>  <measure_name>
max activation

>  <measured_number>
-13.1

$$$$
>  <molecule>
CN(C)CCN(Cc1cccs1)c1ccccn1

>  <measure_name>
max activation

>  <measured_number>
-1.17

$$$$
>  <molecule>
CCCCC(CC)COC(=O)c1ccc(N(C)C)cc1 (stereo not given)

>  <measure_name>
max activation

>  <measured_number>
-1.01

$$$$
>  <molecule>
C[C@]12CCC(=O)C=C1CC[C@@H]1[C@@H]2C(=O)C[C@@]2(C)[C@H]1CC[C@]2(O)C(=O)CO

>  <measure_name>
max activation

>  <measured_number>
0.346

$$$$
>  <molecule>
O=C(/C=C/c1ccccc1)OCc1ccccc1

>  <measure_name>
max activation

>  <measured_number>
-0.887

$$$$
>  <molecule>
Cc1cccc(N(C)C(=S)Oc2ccc3ccccc3c2)c1

>  <measure_name>
max activation

>  <measured_number>
2.58

$$$$
>  <molecule>
COc1ccc(OC)c(C(O)CNC(=O)CN)c1 (stereo not given)

>  <measure_name>
max activation

>  <measured_number>
1.02

$$$$
>  <molecule>
C[Si](C)(C)O[Si](C)(C)C

>  <measure_name>
max activation

>  <measured_number>
-1.76

$$$$
>  <molecule>
OC[C@H]1O[C@@H]2O[C@H]3[C@H](O)[C@@H](O)[C@@H](O[C@H]4[C@H](O)[C@@H](O)[C@@H](O[C@H]5[C@H](O)[C@@H](O)[C@@H](O[C@H]6[C@H](O)[C@@H](O)[C@@H](O[C@H]7[C@H](O)[C@@H](O)[C@@H](O[C@H]8[C@H](O)[C@@H](O)[C@@H](O[C@H]1[C@H](O)[C@H]2O)O[C@@H]8CO)O[C@@H]7CO)O[C@@H]6CO)O[C@@H]5CO)O[C@@H]4CO)O[C@@H]3CO

>  <measure_name>
max activation

>  <measured_number>
-2.34

$$$$
>  <molecule>
Cc1ncc[nH]1

>  <measure_name>
max activation

>  <measured_number>
1.32

$$$$
>  <molecule>
O=S(=O)(O)c1ccc(O)cc1

>  <measure_name>
max activation

>  <measured_number>
-1.73

$$$$
>  <molecule>
CCCC(=O)O

>  <measure_name>
max activation

>  <measured_number>
-1.54

$$$$
>  <molecule>
Nc1ncn([C@@H]2O[C@H](CO)[C@@H](O)[C@H]2O)c(=O)n1

>  <measure_name>
max activation

>  <measured_number>
-11.1

$$$$
>  <molecule>
CN1C(C(=O)Nc2ccccn2)=C(O)c2ccccc2S1(=O)=O

>  <measure_name>
max activation

>  <measured_number>
-2.52

$$$$
>  <molecule>
C#C[C@]1(O)CC[C@H]2[C@@H]3CCc4cc(OC)ccc4[C@H]3CC[C@@]21C

>  <measure_name>
max activation

>  <measured_number>
4.03

$$$$
>  <molecule>
O=C(COc1ccc(Cl)cc1)N1CCN(Cc2ccc3c(c2)OCO3)CC1

>  <measure_name>
max activation

>  <measured_number>
0.0978

$$$$
>  <molecule>
CC(C)(C)NC(=O)[C@H]1CC[C@H]2[C@@H]3CC[C@H]4NC(=O)C=C[C@]4(C)[C@H]3CC[C@]12C

>  <measure_name>
max activation

>  <measured_number>
-2.95

$$$$
